The measurements presented in this section are drawn from patent US7569724B2.

Test system: HDAC (HeLa cell extract)
Experiment: Primary assay: deacetylase activity, HeLa cell extract as source of HDAC
Format: biochemical, human
Conditions: comparative tables, HeLa cell extract; read-out: HeLa IC50
pIC50: −log10 of the molar value.
Measurement Type: pIC50

Below, 5 molecules whose answers are already recorded.
1. CN(C)c1ccc(/C=C/C=C/C(=O)NCCCCCC(=O)NO)cc1	7.62
2. CN(C)c1ccc(C(=O)NCCCCCC(=O)NO)cc1	6.96
3. CN(C)c1ccc(C(=O)NCCCCC(=O)NO)c2ccccc12	5.82
4. O=C(CCCCCNC(=O)c1ccco1)NO	6.40
5. O=C(/C=C/C=C/c1cccc2ccccc12)NCCCCCC(=O)NO	7.20

(I) O=C(/C=C/C=C/c1ccc(-c2ccccc2)cc1)NCCCCCC(=O)NO
(II) O=C(/C=C/c1ccccc1)NCCCCCC(=O)NO
Query string: Quick check, higher pIC50 between I and II ? Answer format: the label of the selected item.
Result string: I

(A) O=C(CCCCCNC(=O)c1cccc2ccccc12)NO
(B) O=C(/C=C/c1ccco1)NCCCCCC(=O)NO
Query string: Quick check, higher pIC50 between A and B ? Answer format: the label of the selected item.
Result string: B
(B: 7.08, A: 6.48)

====

Tested on: HeLa cells
Assay: Secondary assay: cell proliferation WST-1, HeLa
Type: cell-based
Settings: Homo sapiens, 48 h, read-out: Cell Proliferation Inhibition WST-1 (IC50 unless otherwise specified) HeLa
pIC50: −log10 of the molar value.
Measurement Type: pIC50

1) O=C(/C=C/c1cccc(NC(=O)/C=C/c2ccc3c(c2)OCO3)c1)NO	5.01
2) O=C(/C=C/c1ccc2c(c1)OCO2)NCCCCCC(=O)NO	5.05
3) O=C(CCCCCNC(=O)CC=C(c1ccccc1)c1ccccc1)NO	4.82

(I) Cn1cccc1/C=C/C(=O)NCCCCCC(=O)NO
(II) O=C(/C=C/c1cccs1)NCCCCCC(=O)NO
Query string: Quick check, higher pIC50 between I and II ? Answer format: the label of the selected item.
Result string: II
(II: 6.24, I: 5.00)

====

Tested on: HeLa cells
Assay: Secondary assay: cell proliferation WST-1, HeLa
Format: cell-based
Conditions: Homo sapiens, 48 h, read-out: Cell Proliferation Inhibition WST-1 (IC50 unless otherwise specified) HeLa
Measurement Type: IC50 (µM)

Below, 5 compounds whose answers are already recorded.
1) O=C(/C=C/C=C/c1ccccc1)NCCCCCCCC(=O)NO [PX105851]	4.2
2) O=C(/C=C/c1ccc(-c2cc(C(F)(F)F)cc(C(F)(F)F)c2)o1)NCCCCCC(=O)NO [PX117224]	26
3) O=C(/C=C\C=C\c1ccc(Cl)cc1)NCCCCCC(=O)NO [PX105849]	5.3
4) O=C(CCCCCCC(=O)Nc1ccc(-c2ccccc2)cc1)NO [PX117720]	1.8
5) O=C(/C=C/c1cccn1-c1ccc(Cl)cc1)NCCCCCC(=O)NO [PX116235]	1

(A) CC(C)(C)c1ccc(C(=O)NCCCCCC(=O)NO)cc1 [PX106496]
(B) O=C(/C=C/C=C/c1ccc([N+](=O)[O-])cc1)NCCCCCC(=O)NO [PX105847]
Query string: # query: argmin of IC50 over A and B Answer format: the label of the selected item.
Result string: A

(I) C/C(=C\C(=O)NCCCCCC(=O)NO)c1ccccc1 [PX117254]
(II) CN(C)c1ccc(C(=O)NCCCCCC(=O)NO)c2ccccc12 [PX089275]
(III) CC(/C=C/C(=O)NCCCC(=O)NO)=C\c1ccccc1 [PX105554]
Query string: Sequence the entries by IC50, beginning with the highest number. Enter labels, ranked according to the request.
Result string: III, I, II
